Recorded Kd, one value per entry.
- target.under.test: FAM-αC-conotoxin PrXA (Conus parius, UniProt P0C8S5 52-83)
- Sequence (P0C8S5 52-83): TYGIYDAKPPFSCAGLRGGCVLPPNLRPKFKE
- protocol.text: fluorescence anisotropy
- experimental.setup: tags: 5,6-carboxyfluorescein (FAM)
API: value field is a number in nM; no unit string.

Take a look at these entries with their results.
# input Look up Kd: D7 (ssDNA) DNA: GCCTGTTGTGAGCCTCCTGTCGAATGCAGCATGGGGGATGTGCTCTTCCGCGTGTTGAGCGTTTATTCTTGTCTCCC
# output 238

# input Another binder to look at: B4 (ssDNA) DNA: GCCTGTTGTGAGCCTCCTGTCGAATACGCACATACTGTGTACCTTGAATTTATATTGAGCGTTTATTCTTGTCTCCC
# output 120

# input What about this binder? A4 (ssDNA) DNA: GCCTGTTGTGAGCCTCCTGTCGAAAATGCTGTTGTTTGAGTATCAATCAGACCGTTGAGCGTTTATTCTTGTCTCCC
# output 246

# input Please answer likewise for D3 (ssDNA) DNA: GCCTGTTGTGAGCCTCCTGTCGAAATCGGTCGTATAGGGTCGATTTGGTCGGCATTGAGCGTTTATTCTTGTCTCCC
# output 122

Please examine the following record next.
# input Would you kindly share the measured Kd for A5 (ssDNA) DNA: GCCTGTTGTGAGCCTCCTGTCGAAGTGCAGGTCTATACAGGACAGTCTTCTGATTTGAGCGTTTATTCTTGTCTCCC ?
# output 184
